Values compiled from the kinase profiling compilation of Christmann-Franck et al. (2016).

Kindly state residual activity for each of the entries shown.
- target_system: PDPK1 (human) (UniProt O15530)
- Sequence (O15530 whole entry, looked up): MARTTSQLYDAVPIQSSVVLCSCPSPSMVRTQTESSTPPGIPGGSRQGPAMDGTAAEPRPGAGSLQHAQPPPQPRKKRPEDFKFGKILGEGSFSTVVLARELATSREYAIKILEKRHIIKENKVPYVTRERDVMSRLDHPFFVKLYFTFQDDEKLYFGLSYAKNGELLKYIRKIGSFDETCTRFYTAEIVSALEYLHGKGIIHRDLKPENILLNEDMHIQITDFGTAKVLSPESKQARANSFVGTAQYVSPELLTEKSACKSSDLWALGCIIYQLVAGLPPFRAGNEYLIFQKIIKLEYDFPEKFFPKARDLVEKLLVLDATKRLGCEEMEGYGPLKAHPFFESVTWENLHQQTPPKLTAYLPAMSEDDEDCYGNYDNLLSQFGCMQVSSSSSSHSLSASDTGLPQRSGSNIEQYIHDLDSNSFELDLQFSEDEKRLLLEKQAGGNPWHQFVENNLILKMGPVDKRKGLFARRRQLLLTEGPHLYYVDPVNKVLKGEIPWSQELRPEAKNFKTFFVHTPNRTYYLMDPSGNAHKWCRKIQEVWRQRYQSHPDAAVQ
- assay_info: radiometric filter-binding kinase assay, Kinase HotSpot
- cond: compound 0.5 µM; ATP 10 µM
Numbers only, in %.

Batch request: residual activity for each of the following compounds.
1. N#CCCc1ccc2c(c1)-c1[nH]c3ccc([N+](=O)[O-])cc3c1CC(=O)N2
2. O=c1[nH]c2ccccc2n1C1CCN(Cc2ccc(-c3nc4cc5[nH]cnc5cc4nc3-c3ccccc3)cc2)CC1
3. c1ccc(-c2cnc(Nc3ccc(OCCN4CCCC4)cc3)s2)cc1
4. Cn1cc(/C=C2\C(=O)Nc3ccc(S(N)(=O)=O)cc32)c2ccccc21
5. COc1cc2c(cc1OC)-c1[nH]nc(Nc3cccc(F)c3)c1C2
6. O=C1NC(=O)c2c1c1c3ccccc3[nH]c1c1[nH]c3cc(Br)ccc3c21

1: 79.8; 2: 107; 3: 84.9; 4: 95; 5: 95.9; 6: 66.1

Batch of 3 compounds: report residual activity for each.
1. O=C1NC(=O)c2cc(Nc3ccc(F)cc3)c(Nc3ccc(F)cc3)cc21
2. N#Cc1c(NC(=O)c2cccc3ccccc23)sc2c1CCCC2
3. COc1cc2ncnc(Nc3ccc(O)c(Br)c3)c2cc1OC

1: 102; 2: 92.1; 3: 96.6

Hey, quick one: what's residual activity for each of these?
1. O=c1c2ccccc2[nH]c(=S)n1CCN1CCC(=C(c2ccc(F)cc2)c2ccc(F)cc2)CC1
2. O=c1c(-c2ccc(F)cc2)c(-c2ccncc2)[nH]n1-c1ccc(Cl)cc1
3. CCOc1cc2ncnc(Nc3cccc(Br)c3)c2cc1OCC
4. O=c1cc(N2CCOCC2)oc2c(-c3ccccc3)cccc12
5. CCc1nc(-c2ccc(OC)cc2)[nH]c1-c1ccncc1
6. O=S(=O)(NCCNC/C=C/c1ccc(Br)cc1)c1cccc2cnccc12
7. FC(F)(F)c1ccc(/C=C/c2nc(COc3ccc(CCCCn4ccnn4)cc3)co2)cc1

99.2
104
96.8
104
96
94.1
104
